- experimentalSystem: T1, recombinant human LIGHT-214E, FLAG-tagged extracellular domain (human)
- T1 construct: Trimer; Biotinylated in some assays
- T1 chain: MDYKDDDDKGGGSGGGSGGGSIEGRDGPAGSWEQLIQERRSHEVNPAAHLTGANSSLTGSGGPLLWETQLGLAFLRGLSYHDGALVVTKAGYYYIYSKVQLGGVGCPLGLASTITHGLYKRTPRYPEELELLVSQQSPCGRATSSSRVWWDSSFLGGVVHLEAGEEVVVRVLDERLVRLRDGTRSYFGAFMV
- assayInfo: HTRF competition, LTβR-Fc binding to Flag-hLIGHT-214E
readout: IC50 (nM)
Could you give me the number in nM? Just the number is fine.

Task: Quick check: IC50 of 98C07 (purified from hybridoma supernatant, mouse IgG) (antibody, V domains shown, Murine C / human V chimeric IgG, kappa, purified from hybridoma supernatant) VH: QVQLVESGGGLVKPGGSLRLSCAASGFTFSDYYMSWIRQAPGKGLEWVSYISRSSFIYYSESVKGRFTISRDNAKNSLYLQMNSLRAEDTAVYYCARWELSPFDYWGQGTLVTVSS VL: DIQMTQSPSSLSASVGDRVTITCRASQGISNYLAWFQQKPGKAPKSLIYAASSLQSGVPSKFSGSGSGTDFTLTISSLQPEDFATYFCQQYNTYPFTFGPGTKVDIK ?
Output: 2.06
